Biological target: Curvularia pseudobrachyspora US-215 (ATCC PTA-127509) VHPO, purified, SEQ ID NO: 5
Conditions: read-out: KI (Br-); MCD assay, pH 5.5, substrate inhibition model
Measurement type: pKi
Scale note: pKi = -log10(concentration in M).

Please supply the value of reported pKi for the item [Br-].[K+] [Br-, bromide]
2.03

====

Molecular target: Curvularia sp. 4388 (NMI Accession No. V22/011149) VHPO, purified, SEQ ID NO: 2
Conditions: read-out: KI (Br-); MCD assay, pH 5.5, substrate inhibition model
Measurement type: Ki (mM)
Respond with the bare value in mM.

Please supply the value of reported Ki for the item [Br-].[K+] [Br-, bromide]
2.9
